- Experimental Target: KRAS G12C (Homo sapiens, UniProt P01116, G12C)
- Sequence (P01116 1-169 isoform P01116-2 G12C): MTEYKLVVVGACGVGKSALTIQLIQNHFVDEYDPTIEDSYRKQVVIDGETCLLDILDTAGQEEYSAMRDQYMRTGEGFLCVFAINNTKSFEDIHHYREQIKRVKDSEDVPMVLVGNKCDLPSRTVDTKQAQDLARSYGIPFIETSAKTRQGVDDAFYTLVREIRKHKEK
- Protocol Details: KRAS G12C nucleotide exchange assay (SOS1-mediated, mant-GDP fluorescence)
- Type: biochemical
- Design: KRas(1-169) G12C protein
- Assay Context: 15 min pre-incubation
Measured Property: IC50 (nM)

[[record]]
molecule = "C=CC(=O)N1CCN(c2nc(OC[C@@H]3CCCN3C)nc3c(=O)n(-c4cccc5cccc(Cl)c45)c(C)nc23)C[C@@H]1CC#N [Compound 4]"
experimental_target = "KRAS G12C (Homo sapiens, UniProt P01116, G12C)"
measured_property = "IC50"
measurement_unit = "nM"
meas_value = 560


P. C=CC(=O)N1CCN(c2nc(OC[C@@H]3CCCN3C)nc3c(=O)n(-c4c(C)c(C)cc5[nH]ncc45)c(C)nc23)C[C@@H]1CC#N [Compound 16]
Q. C=CC(=O)N(C)C1CCN(c2nc(OC[C@@H]3CCCN3C)nc3c2CCN(c2cccc4cccc(Cl)c24)C3)C1 (some centres unmarked) [Compound 21]
R. C=CC(=O)N1CCN(c2nc(OC[C@@H]3CCCN3C)nc3c(=O)n(-c4cccc5ccccc45)c(-c4ccccc4)nc23)CC1 [Compound 18]
S. C=CC(=O)N1CCN(c2nc(OC[C@@H]3CCCN3C)nc3c(=O)n(-c4cccc5cccc(Cl)c45)c(=O)[nH]c23)C[C@@H]1CC#N [Compound 19]
## Task # rank_down: sort by IC50, max first Your reply should list the labels following the order given in the request.
## Result Q, R, P, S
(Q: 19000 nM, R: 9970 nM, P: 820 nM, S: 370 nM)
